Test system: Lncap
test name: cells
settings: Homo sapiens, 96 h, read-out: Inhibition of H^3 Thymidine uptake (IC50 in nM)
Counter-ions that a name gives are not always drawn.
readout label: IC50 (nM)

A. CO[C@H]1C[C@@H]2CC[C@@H](C)[C@@](O)(O2)C(=O)C(=O)N2CCCC[C@H]2C(=O)O[C@H]([C@H](C)C[C@@H]2CC[C@@H](O)[C@H](OC)C2)CC(=O)[C@H](C)/C=C(\C)[C@@H](O)[C@@H](OC)C(=O)[C@H](C)C[C@H](C)/C=C/C=C/C=C/1C
B. COc1cccc2c1C(=O)c1c(O)c3c(c(O)c1C2=O)C[C@@](O)(C(=O)CO)C[C@@H]3O[C@H]1C[C@H](N)[C@H](O)[C@H](C)O1 [Adriamycin, Adriamycin Hydrochloride]
Q: Parameter metric = IC50. Return the lower-valued option from A and B . Mark your selection by writing its label.
Result: B
(B: 2.54 nM, A: 30.3 nM)

* * *

Form field: IC50 (one value per entry).
Tested on: A431
settings: read-out: Inhibition of H^3 Thymidine uptake (IC50 in nM); A431 cells, 96 hours incubation
Kindly provide the numeric value in nM only, without the unit symbol.

{"molecule": "CO[C@H]1C[C@@H]2CC[C@@H](C)[C@@](O)(O2)C(=O)C(=O)N2CCCC[C@H]2C(=O)O[C@H]([C@H](C)C[C@@H]2CC[C@@H](OC(=O)N[C@@H](CO)[C@@H](O)c3ccccc3)[C@H](OC)C2)CC(=O)[C@H](C)/C=C(\\C)[C@@H](O)[C@@H](OC)C(=O)[C@H](C)C[C@H](C)/C=C/C=C/C=C/1C [Compound 7l]", "subject of test": "A431", "unit tag": "nM", "IC50": 217}

Q: Please report IC50 with A431 for item CO[C@H]1C[C@@H]2CC[C@@H](C)[C@@](O)(O2)C(=O)C(=O)N2CCCC[C@H]2C(=O)O[C@H]([C@H](C)C[C@@H]2CC[C@@H](OC(=O)NC(CO)CO)[C@H](OC)C2)CC(=O)[C@H](C)/C=C(\C)[C@@H](O)[C@@H](OC)C(=O)[C@H](C)C[C@H](C)/C=C/C=C/C=C/1C [Compound 7o] .
Result: 150

Q: Please report IC50 with A431 for item CO[C@H]1C[C@@H]2CC[C@@H](C)[C@@](O)(O2)C(=O)C(=O)N2CCCC[C@H]2C(=O)O[C@H]([C@H](C)C[C@@H]2CC[C@@H](OC(=O)N[C@H](CO)[C@@H](C)O)[C@H](OC)C2)CC(=O)[C@H](C)/C=C(\C)[C@@H](O)[C@@H](OC)C(=O)[C@H](C)C[C@H](C)/C=C/C=C/C=C/1C [Compound 7r] .
Result: 191
